biological target: FGFR1 active kinase (Homo sapiens, UniProt P11362); experiment: FGFR Kinase assay - Caliper; assay type: biochemical; conditions: FGFR1 […], 408 uM ATP; mean of n as printed; read-out: FGFR Kinase assay - Caliper, IC50; note: 408 µM ATP
Sequence (P11362 22-822): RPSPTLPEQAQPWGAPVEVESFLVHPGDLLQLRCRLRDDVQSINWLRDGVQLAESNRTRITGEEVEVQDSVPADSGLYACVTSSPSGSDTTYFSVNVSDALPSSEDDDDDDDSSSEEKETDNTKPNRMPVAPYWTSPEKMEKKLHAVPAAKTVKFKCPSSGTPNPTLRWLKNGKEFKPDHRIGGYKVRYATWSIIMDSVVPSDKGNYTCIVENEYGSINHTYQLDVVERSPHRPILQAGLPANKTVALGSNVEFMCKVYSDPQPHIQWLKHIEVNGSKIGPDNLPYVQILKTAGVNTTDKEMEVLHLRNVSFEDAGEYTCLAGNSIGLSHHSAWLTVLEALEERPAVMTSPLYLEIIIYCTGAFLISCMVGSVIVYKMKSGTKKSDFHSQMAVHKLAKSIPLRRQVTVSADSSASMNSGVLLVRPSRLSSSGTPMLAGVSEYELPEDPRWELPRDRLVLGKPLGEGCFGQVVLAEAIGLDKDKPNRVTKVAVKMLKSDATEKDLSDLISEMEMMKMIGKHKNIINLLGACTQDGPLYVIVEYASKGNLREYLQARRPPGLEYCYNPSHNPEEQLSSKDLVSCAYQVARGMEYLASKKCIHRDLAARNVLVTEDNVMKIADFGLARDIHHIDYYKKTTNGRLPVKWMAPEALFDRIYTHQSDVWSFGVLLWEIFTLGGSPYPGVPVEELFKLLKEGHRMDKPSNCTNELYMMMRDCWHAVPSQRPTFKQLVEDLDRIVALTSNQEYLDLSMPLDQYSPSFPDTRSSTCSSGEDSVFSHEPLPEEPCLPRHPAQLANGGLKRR
pIC50: −log10 of the molar value.
Measured Parameter: pIC50

COc1cc(CCc2cc(NC(=O)c3ccc(N4CCN(C(C)=O)CC4)cc3)n[nH]2)cc(OC)c1 ... 7.25
COc1cccc(CCc2cc(NC(=O)c3ccc(O)nc3)[nH]n2)c1 ... 5.98
COc1cccc(CCc2cc(NC(=O)c3ccc(-n4cccn4)nc3)[nH]n2)c1 ... 4.16
COc1cc(CCc2cc(NC(=O)c3ccccc3)[nH]n2)cc(OC)c1 ... 6.85

[1] COc1cc(CCc2cc(NC(=O)c3ccc(N4CCNCC4)nc3)n[nH]2)cc(OC)c1
[2] COc1cc(CCc2cc(NC(=O)c3ccc(N4CCN(C(C)C)CC4)cc3)n[nH]2)cc(OC)c1
[3] COc1cc(CCc2cc(NC(=O)c3ccc(N(C)C)cc3)n[nH]2)cc(OC)c1
[4] COc1cccc(CCc2cc(NC(=O)c3ccc(Nc4ccccc4)nc3)[nH]n2)c1
*Q* Arrange the 4 molecules from largest to smallest pIC50. // rank by listing labels in the order requested
*A* 2, 1, 3, 4
(2: 9.40, 1: 7.40, 3: 6.87, 4: 4.19)

###

target: FGFR1 active kinase (Homo sapiens, UniProt P11362); test: FGFR Kinase assay - Caliper Echo Dosing; assay type: biochemical; conditions: FGFR1 7.2 nM, 408 uM ATP, acoustic dosing; geometric mean of n
pIC50: −log10 of the molar value.
Measured Parameter: pIC50

Field: example entries. Status: answers known.
CNC(=O)c1cccc(CCc2cc(NC(=O)c3ccc(N4CCN(C)CC4)cc3)[nH]n2)c1 [Example 178] ... 8.96
COc1cc(CCc2cc(NC(=O)c3cnc(N4CCN5CCCC5C4)nc3)[nH]n2)cc(OC)c1 (centres unmarked) [Example 128] ... 8.52
COc1cc(COc2cc(NC(=O)c3cnc(N4CCN5CCCCC5C4)cn3)[nH]n2)cc(OC)c1 (centres unmarked) [Example 115] ... 8.64
COc1cc(CCc2cc(NC(=O)c3ccc(N4CCN(C)CC4)s3)[nH]n2)cc(OC)c1 [Example 106] ... 9.00
COc1cc(COc2cc(NC(=O)c3ccc(N4C[C@@H](C)N(C)[C@@H](C)C4)cc3)[nH]n2)cc(OC)c1 [Example 110] ... 9.17

[1] COc1cc(CCc2cc(NC(=O)c3ccc(N4CCN5CCCC5C4)s3)[nH]n2)cc(OC)c1 (centres unmarked) [Example 120]
[2] COc1cc(CCc2cc(NC(=O)c3cnc(N4CCNC(C)(C)C4)cn3)[nH]n2)cc(OC)c1 [Example 108]
[3] COc1cc(COc2cc(NC(=O)c3cnc(Cl)cn3)[nH]n2)cc(OC)c1
*Q* Arrange the 3 molecules from largest to smallest pIC50. // rank by listing labels in the order requested
*A* 1, 2, 3

###

target: UniProt P11362; experiment: FGFR Kinase assay - Caliper Echo Dosing; assay type: biochemical; details: FGFR1 7.2 nM, 408 uM ATP, acoustic dosing; geometric mean of n
Measured Parameter: IC50 (nM)

Field: example entries. Status: answers known.
COc1cc(CCc2cc(NC(=O)c3ccc(N4CCCN(C(C)C)CC4)cc3)[nH]n2)cc(OC)c1 ... 0.7
COc1cc(COc2cc(NC(=O)c3ccc(N4C[C@@H](C)N[C@@H](C)C4)cc3)[nH]n2)cc(OC)c1 ... 1.4
COc1cc(CCc2cc(NC(=O)c3ccc(N4CC[N+](C)([O-])CC4)cc3)[nH]n2)cc(OC)c1 ... 1.3
COc1cc(COc2cc(NC(=O)c3ccc(N4C[C@@H](C)N[C@@H](C)C4)s3)[nH]n2)cc(OC)c1 ... 1.8
COc1cc(COc2cc(NC(=O)c3ccc(N4CCN5CCCC5C4)cc3)[nH]n2)cc(OC)c1 (stereo not shown) ... 1.3

[A] CCN1CCCN(c2ncc(C(=O)Nc3cc(CCc4cc(OC)cc(OC)c4)n[nH]3)cn2)CC1
[B] COc1cc(CCc2cc(NC(=O)c3ccc(C4CCN(C5CC5)CC4)cc3)[nH]n2)cc(OC)c1
*Q* Name the one with the greater IC50 value, either A or B as given. Your choice should be expressed through its label.
*A* A
